Test: CellTiter 96 AQueous One Solution (MTS) cell proliferation assay
Type: cell-based
Settings: human, MM.1S multiple myeloma cells; MM.1S cells, 72 h treatment; read-out: Cytotoxicity [EC50]
The entries below are paired with their reported EC50 at 72 h.

Use these answered entries as a reference point.
CCN(C(=O)/C=C\n1cnc(-c2cc(C(F)(F)F)cc(C(F)(F)F)c2)n1)C(C)c1cccnc1 (stereo not shown); 1 to 10 µM
Cc1ncc(CN(C)C(=O)/C=C\n2cnc(-c3cc(C(F)(F)F)cc(C(F)(F)F)c3)n2)cn1; 1 to 10 µM
NC1C2CN(C(=O)/C=C\n3cnc(-c4cc(C(F)(F)F)cc(C(F)(F)F)c4)n3)CC12 (stereo not shown); < 1 µM
O=C(/C=C\n1ccc(-c2cc(C(F)(F)F)cc(C(F)(F)F)c2)n1)N1CC(F)(F)C1; < 1 µM

Can you share its EC50 at 72 h? I mean this compound: N#CC1CN(C(=O)/C=C\n2cnc(-c3cc(C(F)(F)F)cc(C(F)(F)F)c3)n2)C1
< 1 µM

Try the compound O=C(/C=C\n1cnc(-c2cc(C(F)(F)F)cc(C(F)(F)F)c2)n1)N1CC(O)(C(F)(F)F)C1
< 1 µM

Okay, and CN1CCC(CNC(=O)/C=C\n2cnc(-c3cc(C(F)(F)F)cc(C(F)(F)F)c3)n2)CC1 ?
< 1 µM

Likewise for [2H]/C(=C/n1nc(-c2cc(C(F)(F)F)cc(C(F)(F)F)c2)nc1[2H])C(=O)N1CC(F)(F)C1 ?
< 1 µM

Same question for O=C(/C=C\c1n[nH]c(-c2cc(C(F)(F)F)cc(C(F)(F)F)c2)n1)N1CC(F)(F)C1 please.
1 to 10 µM

Follow-up entry: O=C(/C=C\n1cnc(-c2cc(C(F)(F)F)cc(C(F)(F)F)c2)n1)NNc1ccccn1
< 1 µM

// next record CN1CCC(CNC(=O)/C=C\n2cnc(-c3cc(C(F)(F)F)cc(C(F)(F)F)c3)n2)C1 (stereo not shown)
< 1 µM

Proceed to O=C1CC(c2cc(C(F)(F)F)cc(C(F)(F)F)c2)CN1/C=C\C(=O)N1CC(F)(F)C1 (stereo not shown)
> 10 µM

What do you get for O=C(/C=C\n1cnc(-c2cc(F)cc(C(F)(F)F)c2)n1)N1CC(F)(F)C1 ?
< 1 µM

Let us now turn to O=C(/C=C\n1cnc(-c2cc(C(F)(F)F)cc(C(F)(F)F)c2)n1)N1CCC1
< 1 µM

Record: O=C(/C=C\n1cnc(-c2cc(C(F)(F)F)cc(C(F)(F)F)c2)n1)N1CC(O)C1
< 1 µM

Try the compound O=C(/C=C\n1cnc(-c2cc(C(F)(F)F)cc(C(F)(F)F)c2)n1)N1CC(c2ccccn2)C1
< 1 µM

Try O=C(/C=C\n1cnc(-c2cc(C(F)(F)F)c(Cl)c(C(F)(F)F)c2)n1)N1CC(F)(F)C1 next.
< 1 µM

Also need Cc1ncc(CNC(=O)/C=C\n2cnc(-c3cc(C(F)(F)F)cc(C(F)(F)F)c3)n2)cn1 , thanks.
1 to 10 µM

Let us now turn to O=C(/C=C\n1cnc(-c2cc(C(F)(F)F)cc(C(F)(F)F)c2)n1)N1CCC(F)(F)C1
< 1 µM

Value source: patent US20240376114A1
